# procedure-details: Plasma pharmacokinetics in mice after oral administration
# Assay type: in vivo, mouse (FVB)
# recorded-conditions: female, FVB, po; mouse plasma, 20 mg/kg orally administered, t = 8 h; read-out: plasma concentration of representative sample
result-type: concentration at 8 h (ng/mL)

>  <mol>
CN(C)C(=O)c1cc2cnc(Nc3ccc(N4CCNCC4)cn3)nc2n1C1CCCC1

>  <unit-info>
ng/mL

>  <result-number>
625

$$$$

----------
# procedure-details: Plasma pharmacokinetics in mice after oral administration
# Type: in vivo, mouse (FVB)
# recorded-conditions: FVB, po; mouse plasma, 10 mg/kg orally administered, t = 2 h; read-out: plasma concentration of representative sample

>  <mol>
CC(=O)c1c(C)c2cnc(Nc3ccc(N4CCNCC4)cn3)nc2n(C2CCCC2)c1=O

>  <concentration at 2 h (ng/mL)>
311

$$$$

----------
# procedure-details: Plasma pharmacokinetics in mice after oral administration
# Type: in vivo, mouse (FVB)
# recorded-conditions: FVB, po; mouse plasma, 10 mg/kg orally administered, t = 24 h; read-out: plasma concentration of representative sample

>  <mol>
CCN1CCN(Cc2ccc(Nc3ncc(F)c(-c4cc(F)c5nc(C)n(C(C)C)c5c4)n3)nc2)CC1

>  <unit-info>
ng/mL

>  <concentration at 24 h>
74.3

$$$$

----------
# procedure-details: Plasma pharmacokinetics in mice after oral administration
# Type: in vivo, mouse (FVB)
# recorded-conditions: mouse; female FVB mice, 20 mg/kg oral, plasma, n = 6; read-out: Tmax range
# Protocol: This method was developed to support pharmacokinetic and tissue distribution studies of the CDK4/6 inhibitors in mice (FVB background). These studies were done separately for each drug. Animal housing and studies were conducted according to institutional guidelines complying with Dutch and European Union legislation (approval number from The Dutch Central Animal Testing Committee: AVD301002016595). […]

>  <mol>
CN(C)C(=O)c1cc2cnc(Nc3ccc(N4CCNCC4)cn3)nc2n1C1CCCC1

>  <Tmax>
30 to 60 min

$$$$

----------
# procedure-details: Plasma pharmacokinetics in mice after oral administration
# Assay type: in vivo, mouse (FVB)
# recorded-conditions: mouse; female FVB mice, 20 mg/kg oral, plasma, n = 6

>  <mol>
CN(C)C(=O)c1cc2cnc(Nc3ccc(N4CCNCC4)cn3)nc2n1C1CCCC1

>  <Cmax / ng/mL>
1040

$$$$
